assay: chemical genetic growth profiling, strain panel (AID 1159580);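 note: tested at 20 µM; growth read once vehicle control cultures reached saturation at 30 °C; 1 = growth at the plate median or of vehicle wells; lower values mean less growth of the strain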; conditions: S. cerevisiae deletion strains, growth OD, locus YGL167C, strain pmr1, active compounds read low
In all, about 5,500 compounds went through this assay and about 2,000 (36%) were called active. About 18% were inconclusive and are not listed. The list shows a part of the results.

{"columns": ["molecule", "normalized growth"],
 "data": [
  ["CC(=O)Nc1ccc(OC(=O)c2ccccc2O)cc1", 1.01],
  ["CCn1cc(C(=O)O)c(=O)c2cc(F)c(N3CCNCC3)cc21", 0.985],
  ["C=CCc1ccccc1OCC(O)CNC(C)C (stereo not given)", 0.998],
  ["CN1CCN2c3ccccc3Cc3ccccc3C2C1 (stereo not given)", 1],
  ["CC(=O)Nc1cccc(O)c1", 1.01],
  ["COc1cc([C@@H]2c3cc4c(cc3[C@H](O)[C@H]3COC(=O)[C@@H]23)OCO4)cc(OC)c1OC", 1.02],
  ["CC1=NCCc2c1[nH]c1cc(O)ccc21", 0.976],
  ["C=CCCCCCCCCCCCC(O)CC(O)CO (stereo not given)", 0.998],
  ["CC1=CCc2c(cc3oc(C)cc(=O)c3c2O)OC1", 0.979],
  ["O=c1c(-c2ccccc2)coc2cc(O)cc(O)c12", 1.01]
]}

Sourced from PubChem BioAssay AID1159580
